Where do these numbers come from? They come from ChEMBL document CHEMBL1129649.

# Target system: Histamine H3 receptor (Rattus norvegicus)
# Sequence (Q9QYN8 whole entry): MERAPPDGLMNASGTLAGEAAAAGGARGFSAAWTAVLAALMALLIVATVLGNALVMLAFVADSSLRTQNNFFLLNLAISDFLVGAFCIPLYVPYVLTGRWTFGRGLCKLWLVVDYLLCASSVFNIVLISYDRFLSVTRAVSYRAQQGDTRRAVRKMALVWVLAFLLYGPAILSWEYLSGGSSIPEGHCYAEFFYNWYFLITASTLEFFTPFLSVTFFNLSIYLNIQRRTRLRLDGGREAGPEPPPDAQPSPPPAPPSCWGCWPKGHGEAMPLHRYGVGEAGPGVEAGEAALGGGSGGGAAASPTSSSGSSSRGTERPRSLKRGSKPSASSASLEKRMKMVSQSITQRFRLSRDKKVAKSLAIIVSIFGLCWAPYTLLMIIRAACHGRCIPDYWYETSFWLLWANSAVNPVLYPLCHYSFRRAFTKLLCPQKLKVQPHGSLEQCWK
# Procedure summary: Rat Histamine H3 receptor antagonism determined by [K+] - evoked depolarization-induced release of [3H]histamine from rat cerebral cortex synaptosomes
pKi: −log10 of the molar value.
Readout: pKi

>>> test_result("CCC(=O)c1ccc(OCCc2cnc[nH]2)cc1")
8.43
>>> test_result("O=[N+]([O-])c1ccc(SCCc2c[nH]cn2)cc1")
8.05
>>> test_result("Fc1ccc(OCCCc2cnc[nH]2)cc1")
7.96
>>> test_result("COC(=O)c1ccc(OCCc2c[nH]cn2)cc1")
8.29
>>> test_result("N#Cc1cccc(OCCc2c[nH]cn2)c1")
7.41
